Below, each entry is listed with its recorded iTRAQ ratio.
target: APP-TAP-AICD (human, UniProt P05067 18-695)
assayRemarks: streptavidin purification of APP-TAP-AICD from brain homogenate; iTRAQ 116/114, transgenic mouse 75 vs control mouse 72; MALDI-TOF/TOF;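 also: relative protein abundance in the transgenic versus control pull-down, limited to proteins with high quality scores and above-average enrichment, without full normalization across the whole measurement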
Keep it simple and answer with nothing but the number.

Field iTRAQ ratio (entry 14-3-3 protein zeta/delta (Protein kinase C inhibitor protein-1) (KCIP-1) (SEZ-2) (other, mouse, UniProt P63101 1-245, looked up) MDKNELVQKAKLAEQAERYDDMAACMKSVTEQGAELSNEERNLLSVAYKNVVGARRSSWRVVSSIEQKTEGAEKKQQMAREYREKIETELRDICNDVLSLLEKFLIPNASQPESKVFYLKMKGDYYRYLAEVAAGDDKKGIVDQSQQAYQEAFEISKKEMQPTHPIRLGLALNFSVFYYEILNSPEKACSLAKTAFDEAIAELDTLSEESYKDSTLIMQLLRDNLTLWTSDTQGDEAEAGEGGEN ) reads 4.51
